Biological target: T1, IL-6R-Fc 항원 (human, UniProt P08887 20-365, limits assumed)
T1 construct: domain: IL-6R full domain; Made in-house as IL-6R-Fc; also called IL-6R full; IL-6R full domain인 단백질; not shown: Fc part (vector pYK 604)
T1 sequence (looked up): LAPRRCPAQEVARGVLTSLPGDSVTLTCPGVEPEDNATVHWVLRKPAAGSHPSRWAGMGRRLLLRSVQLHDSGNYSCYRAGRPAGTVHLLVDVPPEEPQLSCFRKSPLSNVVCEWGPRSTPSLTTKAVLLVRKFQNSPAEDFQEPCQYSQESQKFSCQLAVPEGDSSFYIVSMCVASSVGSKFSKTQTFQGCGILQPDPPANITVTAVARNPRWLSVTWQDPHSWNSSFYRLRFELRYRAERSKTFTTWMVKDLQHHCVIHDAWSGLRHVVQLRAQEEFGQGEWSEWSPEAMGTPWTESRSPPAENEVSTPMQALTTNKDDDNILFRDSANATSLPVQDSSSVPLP
Experiment: ELISA; IL-6R coated 100 ng/well; IgG at 3.125 nM; anti-Fab-HRP
Below: a set of entries, each annotated with reported OD 490 nm.
Please state the figure in OD490; there is no need to write the unit.

Known OD 490 nm results, listed for orientation:
{"binder": "항 IL-6R 단클론 항체 B10 (antibody, V domains shown) VH: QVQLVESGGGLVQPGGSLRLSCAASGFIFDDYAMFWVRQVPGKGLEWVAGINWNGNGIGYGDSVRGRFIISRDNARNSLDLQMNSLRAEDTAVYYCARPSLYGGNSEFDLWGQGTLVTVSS VL: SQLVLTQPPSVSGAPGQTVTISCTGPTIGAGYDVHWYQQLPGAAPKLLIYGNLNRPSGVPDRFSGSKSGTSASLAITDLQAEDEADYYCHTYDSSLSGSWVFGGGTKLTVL", "unit-symbol": "OD490", "OD 490 nm": 0.761}
{"binder": "항 IL-6R 단클론 항체 D2 (antibody, V domains shown) VH: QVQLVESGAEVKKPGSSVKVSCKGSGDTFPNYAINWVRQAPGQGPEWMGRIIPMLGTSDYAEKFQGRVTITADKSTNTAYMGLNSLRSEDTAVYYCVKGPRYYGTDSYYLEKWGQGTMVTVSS VL: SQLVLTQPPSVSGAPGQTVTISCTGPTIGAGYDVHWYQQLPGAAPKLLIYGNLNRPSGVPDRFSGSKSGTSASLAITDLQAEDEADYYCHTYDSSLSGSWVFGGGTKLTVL", "unit-symbol": "OD490", "OD 490 nm": 0.719}
{"binder": "항 IL-6R 단클론 항체 F2 (antibody, V domains shown) VH: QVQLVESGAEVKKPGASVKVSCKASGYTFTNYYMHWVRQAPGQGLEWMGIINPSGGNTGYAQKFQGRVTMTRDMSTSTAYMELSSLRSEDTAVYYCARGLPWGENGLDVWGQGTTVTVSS VL: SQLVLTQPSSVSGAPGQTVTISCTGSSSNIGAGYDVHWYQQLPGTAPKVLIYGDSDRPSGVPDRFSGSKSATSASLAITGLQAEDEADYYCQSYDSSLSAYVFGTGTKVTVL", "unit-symbol": "OD490", "OD 490 nm": 2.72}

Moving on to another binder below.
response.value for 항 IL-6R 단클론 항체 A7 (antibody, V domains shown) VH: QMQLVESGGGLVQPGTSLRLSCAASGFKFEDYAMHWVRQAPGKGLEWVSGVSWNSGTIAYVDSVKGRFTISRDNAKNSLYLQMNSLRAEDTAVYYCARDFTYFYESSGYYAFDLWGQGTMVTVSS VL: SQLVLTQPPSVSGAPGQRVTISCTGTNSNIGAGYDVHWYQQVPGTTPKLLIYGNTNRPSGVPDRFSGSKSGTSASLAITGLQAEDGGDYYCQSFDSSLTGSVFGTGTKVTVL (field: OD 490 nm) = 1.64
